- System: Escherichia coli TOP10
- test.details: shrunken log2 fold change of peptide-encoding DNA abundance (4.5 h post-induction vs induction); higher = less antimicrobial activity (less host growth inhibition)
- cond: time post-induction: 4.5 h; library: site-saturation at positions 5, 18, 19, 20
Task for the reader: assign each of the following sequences its reported shrunken log2 fold change.
Field format: numeric only.

Lookup result for RRIRERPPRLPRPRPRPHHKPRP ; measured shrunken log2 fold change: -0.449

Lookup result for RRIRDRPPRLPRPRPRPEFNPRP ; measured shrunken log2 fold change: 0.574

Lookup result for RRIRPRPPRLPRPRPRPCLGPRP ; measured shrunken log2 fold change: -0.198

Lookup result for RRIRYRPPRLPRPRPRPAKYPRP ; measured shrunken log2 fold change: -0.142

Lookup result for RRIRYRPPRLPRPRPRPGTVPRP ; measured shrunken log2 fold change: 0.0427

Lookup result for RRIRIRPPRLPRPRPRPVDRPRP ; measured shrunken log2 fold change: 0.0811

Lookup result for RRIRQRPPRLPRPRPRPSPIPRP ; measured shrunken log2 fold change: -0.0339

Lookup result for RRIRVRPPRLPRPRPRPPGAPRP ; measured shrunken log2 fold change: 0.595

Lookup result for RRIRGRPPRLPRPRPRPVFAPRP ; measured shrunken log2 fold change: 0.696

Lookup result for RRIRKRPPRLPRPRPRPNPRPRP ; measured shrunken log2 fold change: 0.228

Lookup result for RRIRARPPRLPRPRPRPNHCPRP ; measured shrunken log2 fold change: 0.956

Lookup result for RRIRDRPPRLPRPRPRPKNIPRP ; measured shrunken log2 fold change: -0.465

Lookup result for RRIRWRPPRLPRPRPRPEVMPRP ; measured shrunken log2 fold change: 0.00589

Lookup result for RRIRVRPPRLPRPRPRPHNLPRP ; measured shrunken log2 fold change: -0.356

Lookup result for RRIRTRPPRLPRPRPRPVDRPRP ; measured shrunken log2 fold change: 0.141

----------
- Tested on: Escherichia coli TOP10
- test.details: shrunken log2 fold change of peptide-encoding DNA abundance (4.5 h post-induction vs induction); higher = less antimicrobial activity (less host growth inhibition)
- cond: time post-induction: 4.5 h; library: site-saturation at positions 5, 18, 19, 20
outcome.measure: shrunken log2 fold change
Field format: numeric only.

Lookup result for RRIRWRPPRLPRPRPRPKVEPRP ; measured shrunken log2 fold change: -0.0433

Lookup result for RRIRGRPPRLPRPRPRPQAIPRP ; measured shrunken log2 fold change: 0.58

Lookup result for RRIRRRPPRLPRPRPRPCRNPRP ; measured shrunken log2 fold change: 0.0376

Lookup result for RRIRYRPPRLPRPRPRPYLYPRP ; measured shrunken log2 fold change: -0.109

Lookup result for RRIRYRPPRLPRPRPRPIGGPRP ; measured shrunken log2 fold change: -0.4

Lookup result for RRIRYRPPRLPRPRPRPHVDPRP ; measured shrunken log2 fold change: -0.588

Lookup result for RRIRMRPPRLPRPRPRPIMNPRP ; measured shrunken log2 fold change: 0.284

Lookup result for RRIRIRPPRLPRPRPRPVHGPRP ; measured shrunken log2 fold change: -0.0643

----------
Task for the reader: assign each of the following sequences its reported shrunken log2 fold change.
- Tested on: Escherichia coli TOP10
- test.details: shrunken log2 fold change of peptide-encoding DNA abundance (4.5 h post-induction vs induction); higher = less antimicrobial activity (less host growth inhibition)
- cond: time post-induction: 4.5 h; library: site-saturation at positions 5, 18, 19, 20
Field format: numeric only.

Lookup result for RRIRSRPPRLPRPRPRPYQHPRP ; measured shrunken log2 fold change: -0.934

Lookup result for RRIRARPPRLPRPRPRPFRNPRP ; measured shrunken log2 fold change: -0.575

Lookup result for RRIRQRPPRLPRPRPRPTCAPRP ; measured shrunken log2 fold change: 0.406

Lookup result for RRIRYRPPRLPRPRPRPPDYPRP ; measured shrunken log2 fold change: -2.1

Lookup result for RRIRLRPPRLPRPRPRPLLWPRP ; measured shrunken log2 fold change: 0.195

Lookup result for RRIRDRPPRLPRPRPRPDINPRP ; measured shrunken log2 fold change: 0.47

Lookup result for RRIRRRPPRLPRPRPRPPRYPRP ; measured shrunken log2 fold change: 0.978

Lookup result for RRIRLRPPRLPRPRPRPKMRPRP ; measured shrunken log2 fold change: 0.608

Lookup result for RRIRVRPPRLPRPRPRPWMTPRP ; measured shrunken log2 fold change: -0.0714

Lookup result for RRIRGRPPRLPRPRPRPCLDPRP ; measured shrunken log2 fold change: -0.0991

Lookup result for RRIRFRPPRLPRPRPRPADRPRP ; measured shrunken log2 fold change: -0.0752

Lookup result for RRIRFRPPRLPRPRPRPWCPPRP ; measured shrunken log2 fold change: -0.155

Lookup result for RRIRGRPPRLPRPRPRPYKLPRP ; measured shrunken log2 fold change: -0.481

Lookup result for RRIRVRPPRLPRPRPRPTDMPRP ; measured shrunken log2 fold change: -0.234

Lookup result for RRIRVRPPRLPRPRPRPRSGPRP ; measured shrunken log2 fold change: 0.322

----------
- System: Escherichia coli TOP10
- test.details: shrunken log2 fold change of peptide-encoding DNA abundance (4.5 h post-induction vs induction); higher = less antimicrobial activity (less host growth inhibition)
- cond: time post-induction: 4.5 h; library: site-saturation at positions 5, 18, 19, 20
outcome.measure: shrunken log2 fold change

Lookup result for RRIRTRPPRLPRPRPRPFDIPRP ; measured shrunken log2 fold change: -0.018

Lookup result for RRIRCRPPRLPRPRPRPLEKPRP ; measured shrunken log2 fold change: -0.072

Lookup result for RRIRPRPPRLPRPRPRPNNNPRP ; measured shrunken log2 fold change: -0.659

Lookup result for RRIRHRPPRLPRPRPRPHGPPRP ; measured shrunken log2 fold change: 0.0873

Lookup result for RRIRTRPPRLPRPRPRPRFNPRP ; measured shrunken log2 fold change: -0.286

Lookup result for RRIRRRPPRLPRPRPRPGEDPRP ; measured shrunken log2 fold change: 0.00579

Lookup result for RRIRFRPPRLPRPRPRPGMWPRP ; measured shrunken log2 fold change: 0.231

Lookup result for RRIRTRPPRLPRPRPRPKVIPRP ; measured shrunken log2 fold change: -0.503

----------
- System: Escherichia coli TOP10
- test.details: shrunken log2 fold change of peptide-encoding DNA abundance (4.5 h post-induction vs induction); higher = less antimicrobial activity (less host growth inhibition)
- cond: time post-induction: 4.5 h; library: site-saturation at positions 5, 18, 19, 20
Short version: shrunken log2 fold change at least -0.3 is Met, less is Not met.

Ask: Evaluate RRIRIRPPRLPRPRPRPGQCPRP : shrunken log2 fold change at minimum -0.3?
Reply: Met

Ask: Evaluate RRIRYRPPRLPRPRPRPEEPPRP : shrunken log2 fold change at minimum -0.3?
Reply: Met

Ask: Evaluate RRIRLRPPRLPRPRPRPYAVPRP : shrunken log2 fold change at minimum -0.3?
Reply: Met

Ask: Evaluate RRIRFRPPRLPRPRPRPDCYPRP : shrunken log2 fold change at minimum -0.3?
Reply: Not met

Ask: Evaluate RRIRARPPRLPRPRPRPYTDPRP : shrunken log2 fold change at minimum -0.3?
Reply: Not met

Ask: Evaluate RRIRNRPPRLPRPRPRPKVAPRP : shrunken log2 fold change at minimum -0.3?
Reply: Met

Ask: Evaluate RRIRRRPPRLPRPRPRPPRDPRP : shrunken log2 fold change at minimum -0.3?
Reply: Met

Ask: Evaluate RRIRFRPPRLPRPRPRPAMPPRP : shrunken log2 fold change at minimum -0.3?
Reply: Met

Ask: Evaluate RRIRHRPPRLPRPRPRPTNFPRP : shrunken log2 fold change at minimum -0.3?
Reply: Not met

Ask: Evaluate RRIRLRPPRLPRPRPRPWVCPRP : shrunken log2 fold change at minimum -0.3?
Reply: Met

Ask: Evaluate RRIRCRPPRLPRPRPRPRRLPRP : shrunken log2 fold change at minimum -0.3?
Reply: Met

Ask: Evaluate RRIRYRPPRLPRPRPRPSHRPRP : shrunken log2 fold change at minimum -0.3?
Reply: Not met

Ask: Evaluate RRIRYRPPRLPRPRPRPNIKPRP : shrunken log2 fold change at minimum -0.3?
Reply: Not met

Ask: Evaluate RRIRFRPPRLPRPRPRPIMWPRP : shrunken log2 fold change at minimum -0.3?
Reply: Met

Ask: Evaluate RRIRRRPPRLPRPRPRPQNMPRP : shrunken log2 fold change at minimum -0.3?
Reply: Not met

----------
- Test system: Escherichia coli TOP10;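 note: peptides expressed intracellularly from a pBAD plasmid library in pooled LB shake-flask culture, induced with 0.3% L-arabinose, DNA abundance read by NGS, three biological replicates, DESeq2 with apeglm shrinkage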
- test.details: shrunken log2 fold change of peptide-encoding DNA abundance (4.5 h post-induction vs induction); higher = less antimicrobial activity (less host growth inhibition)
- cond: time post-induction: 4.5 h; library: site-saturation at positions 5, 18, 19, 20
Response field class: string, computed from recorded shrunken log2 fold change by ranges LOW: < -0.2; MEDIUM: ≥ -0.2 and < 0.02; HIGH: ≥ 0.02

Ask: // return the class label for RRIRWRPPRLPRPRPRPIQWPRP
Reply: HIGH

Ask: // return the class label for RRIRQRPPRLPRPRPRPTINPRP
Reply: LOW

Ask: // return the class label for RRIRHRPPRLPRPRPRPMKCPRP
Reply: MEDIUM

Ask: // return the class label for RRIRGRPPRLPRPRPRPVVEPRP
Reply: HIGH

Ask: // return the class label for RRIRPRPPRLPRPRPRPNICPRP
Reply: LOW

Ask: // return the class label for RRIRPRPPRLPRPRPRPHTTPRP
Reply: HIGH

Ask: // return the class label for RRIRERPPRLPRPRPRPQGNPRP
Reply: MEDIUM

Ask: // return the class label for RRIRWRPPRLPRPRPRPCTIPRP
Reply: MEDIUM

Ask: // return the class label for RRIRKRPPRLPRPRPRPCTLPRP
Reply: MEDIUM

Ask: // return the class label for RRIRHRPPRLPRPRPRPNTSPRP
Reply: LOW

Ask: // return the class label for RRIRERPPRLPRPRPRPGPKPRP
Reply: MEDIUM

Ask: // return the class label for RRIRLRPPRLPRPRPRPRGMPRP
Reply: HIGH

Ask: // return the class label for RRIRERPPRLPRPRPRPDKQPRP
Reply: HIGH

Ask: // return the class label for RRIRYRPPRLPRPRPRPRTWPRP
Reply: MEDIUM

Ask: // return the class label for RRIRKRPPRLPRPRPRPYEYPRP
Reply: MEDIUM

Ask: // return the class label for RRIRARPPRLPRPRPRPVYCPRP
Reply: MEDIUM

Ask: // return the class label for RRIRCRPPRLPRPRPRPRKYPRP
Reply: LOW

Ask: // return the class label for RRIRTRPPRLPRPRPRPHNYPRP
Reply: LOW

Ask: // return the class label for RRIRCRPPRLPRPRPRPPEYPRP
Reply: LOW

Ask: // return the class label for RRIRRRPPRLPRPRPRPGVAPRP
Reply: HIGH

Ask: // return the class label for RRIRKRPPRLPRPRPRPGCAPRP
Reply: HIGH

Ask: // return the class label for RRIRVRPPRLPRPRPRPPNYPRP
Reply: MEDIUM

Ask: // return the class label for RRIRLRPPRLPRPRPRPYEVPRP
Reply: MEDIUM

Ask: // return the class label for RRIRHRPPRLPRPRPRPVEDPRP
Reply: MEDIUM

Ask: // return the class label for RRIRRRPPRLPRPRPRPRFKPRP
Reply: HIGH

Ask: // return the class label for RRIRSRPPRLPRPRPRPTIFPRP
Reply: LOW

Ask: // return the class label for RRIRVRPPRLPRPRPRPLNQPRP
Reply: MEDIUM

Ask: // return the class label for RRIRKRPPRLPRPRPRPMFNPRP
Reply: MEDIUM

Ask: // return the class label for RRIRVRPPRLPRPRPRPYNAPRP
Reply: LOW

Ask: // return the class label for RRIRHRPPRLPRPRPRPIFFPRP
Reply: HIGH

Ask: // return the class label for RRIRLRPPRLPRPRPRPCSPPRP
Reply: MEDIUM

Ask: // return the class label for RRIRARPPRLPRPRPRPVGWPRP
Reply: HIGH
